measurement target: T1, Extracellular domain of human PD1 (huPD1-ECD) (human, UniProt Q15116 25-169, biotinylated in the ligand inhibition assay (sites not given))
T1 construct: Expressed with a hexahistidine tag or as Fc fusion; also called biotinylated PD-1
T1 sequence (Q15116 25-169 limits assumed): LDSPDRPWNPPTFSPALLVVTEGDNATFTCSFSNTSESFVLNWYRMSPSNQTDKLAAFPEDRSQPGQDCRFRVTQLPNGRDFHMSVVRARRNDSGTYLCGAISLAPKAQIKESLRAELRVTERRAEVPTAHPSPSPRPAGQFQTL
method notes: MSD ligand inhibition, competitor coated cynoPDL1-ECD
reported metric: percentage ligand not blocked at 10 µg/ml (%)
Quick reminder: number only, in %, skip the unit.

Example entries and their recorded answers appear below.
binder	units symbol	numeric value
PD1B187 (antibody, V domains shown, Tested as IgG2sigma; also called PD1H3/PD1L148) VH: QVQLVQSGAEVKKPGSSVKVSCKASGGTFSSYAISWVRQAPGQGLEWMGGIIPIFGTANYAQKFQGRVTITADESTSTAYMELSSLRSEDTAVYYCARPGLAAAYDTGSLDYWGQGTLVTVSS VL: EIVLTQSPATLSLSPGERATLSCRASQSVRSYLAWYQQKPGQAPRLLIYDASNRATGIPARFSGSGSGTDFTLTISSLEPEDFAVYYCQQRNYWPLTFGQGTKVEIK	%	5
PD1B184 (antibody, human IgG2, kappa, V domains shown, IgG2sigma/kappa; VH 43, VL 50; also called PD1H3/PD1L128) VH: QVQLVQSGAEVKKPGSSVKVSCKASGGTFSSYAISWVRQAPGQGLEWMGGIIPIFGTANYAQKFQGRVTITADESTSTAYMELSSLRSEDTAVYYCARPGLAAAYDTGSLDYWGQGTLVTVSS VL: EIVLTQSPATLSLSPGERATLSCRASQSVRNYLAWYQQKPGQAPRLLIHDASNRATGIPARFSGSGSGTDFTLTISSLEPEDFAVYYCQQRNYWPLTFGQGTKVEIKR	%	4
PD1B177 (antibody, V domains shown, Tested as IgG2sigma; also called PD1H164/PH9L3) VH: QVQLVQSGAEVKKPGSSVKVSCKASGGTFSDYVISWVRQAPGQGLEWMGGIIPIYGTANYAQKFQGRVTITADESTSTAYMELSSLRSEDTAVYYCARGTLDRTGHLDYWGQGTLVTVSS VL: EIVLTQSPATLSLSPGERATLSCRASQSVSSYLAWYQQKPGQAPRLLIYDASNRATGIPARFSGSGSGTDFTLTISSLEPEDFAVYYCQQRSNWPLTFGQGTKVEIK	%	8

Next binder, please.
Problem: Please supply the value of reported percentage ligand not blocked at 10 µg/ml for the item PD1B11 (antibody, V domains shown, Tested as IgG2sigma/kappa; also called PD1H3/PH9L3) VH: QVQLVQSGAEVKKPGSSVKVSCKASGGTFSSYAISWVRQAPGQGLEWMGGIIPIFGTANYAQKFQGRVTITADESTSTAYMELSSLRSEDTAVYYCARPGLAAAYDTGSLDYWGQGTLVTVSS VL: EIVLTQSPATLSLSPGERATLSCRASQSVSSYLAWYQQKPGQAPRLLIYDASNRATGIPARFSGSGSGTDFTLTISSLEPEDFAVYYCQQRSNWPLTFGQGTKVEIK
Result: 5

Source of measurements: patent US20210277110A1
